The entries below are paired with their reported excess molar enthalpy.
Assay: excess molar enthalpy (molar enthalpy of mixing); xn = mol fraction of the nth substance listed
Conditions: 298.15 K; 101.33 kPa; Liquid; Flow calorimetry; x2 = 0.9
measured-property: excess molar enthalpy

INSERT INTO assay_data (compound, result) VALUES
  ('CC(C)C(C)C [2,3-dimethylbutane] + C=CCCCC', '0.00639 kcal/mol'),
  ('CCC(C)CC [3-methylpentane] + C=CCCCC', '0.00455 kcal/mol'),
  ('CCC(C)(C)C [2,2-dimethylbutane] + C=CCCCC', '0.00524 kcal/mol'),
  ('CCCC(C)C [2-methylpentane] + C=CCCCC', '0.00513 kcal/mol');
